- STUDY SYSTEM: T1, serum purified human Complement Factor D (human, UniProt P00746 26-253)
- T1 construct: Serum purified protein flowed over the captured antibodies; also called CFD; human CFD
- T1 sequence (P00746 26-253): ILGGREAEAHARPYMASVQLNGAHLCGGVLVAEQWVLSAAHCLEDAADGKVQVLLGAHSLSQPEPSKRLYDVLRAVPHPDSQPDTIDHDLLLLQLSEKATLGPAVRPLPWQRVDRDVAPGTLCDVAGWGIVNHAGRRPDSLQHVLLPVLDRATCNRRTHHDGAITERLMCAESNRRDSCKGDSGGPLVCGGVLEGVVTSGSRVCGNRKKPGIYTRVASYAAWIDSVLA
- ASSAY REMARKS: SPR Biacore, antibody on protein A chip, single cycle kinetics, 25 C;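 further: antibodies captured to roughly 70 RU on the protein A surface in HBS-EP+ running buffer, with kinetic constants derived by BIAevaluation fitting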
MEASURED QUANTITY: koff (s⁻¹)
One number for each entry, in s⁻¹.

34I54I59D84S / 54R101V (antibody, human IgG1, V domains shown, Human IgG1 kappa; also called OG1965) VH: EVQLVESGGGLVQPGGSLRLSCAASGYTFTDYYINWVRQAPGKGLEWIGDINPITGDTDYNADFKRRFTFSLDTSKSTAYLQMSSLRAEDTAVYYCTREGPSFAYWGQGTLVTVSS VL: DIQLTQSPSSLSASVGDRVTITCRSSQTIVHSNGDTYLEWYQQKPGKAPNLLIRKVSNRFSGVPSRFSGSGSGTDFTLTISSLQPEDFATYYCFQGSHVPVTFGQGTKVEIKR
9.02e-05

Below are some binders; for each one, tell me its koff.
1. 31S54I59D / 50I60W101V (antibody, V domains shown, KCD119 TAF variant; full antibody captured on protein A) VH: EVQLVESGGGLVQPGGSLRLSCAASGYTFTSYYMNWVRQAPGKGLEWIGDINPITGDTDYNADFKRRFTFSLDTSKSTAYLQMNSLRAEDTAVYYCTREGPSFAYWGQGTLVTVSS VL: DIQLTQSPSSLSASVGDRVTITCRSSQTIVHSNGDTYLEWYQQKPGKAPILLIYKVSNRWSGVPSRFSGSGSGTDFTLTISSLQPEDFATYYCFQGSHVPVTFGQGTKVEIK
2. 54V59D / 34D50V101V (antibody, V domains shown, KCD119 TAF variant; full antibody captured on protein A) VH: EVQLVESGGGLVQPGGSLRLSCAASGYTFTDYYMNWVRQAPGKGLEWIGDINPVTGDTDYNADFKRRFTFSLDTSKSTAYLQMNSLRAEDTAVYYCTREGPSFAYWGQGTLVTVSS VL: DIQLTQSPSSLSASVGDRVTITCRSSQTIVHSNDDTYLEWYQQKPGKAPVLLIYKVSNRFSGVPSRFSGSGSGTDFTLTISSLQPEDFATYYCFQGSHVPVTFGQGTKVEIK

# output
3.98e-05
0.000187
